These entries and their values trace back to paper PMC6534257.

System: Leishmania infantum arginase (ARGLi)
Experiment: ARGLi inhibition by phenolic substances (urea production)
Assay type: biochemical
Conditions: 100 µM substance; 50 mM L-arginine, pH 9.5, 37 °C, 5 min
Answer each item with its documented percentage of inhibition of ARGLi activity.
Express your answer in %, writing the number without its unit.

Query: percentage of inhibition of ARGLi activity for O=c1c(O)c(-c2ccc(O)c(O)c2)oc2cc(O)cc(O)c12 [Quercetin, quercetin, reference compound] ?
Reply: 67.05

Query: Now the molecule Oc1cc(O)c2c(c1)O[C@H](c1ccc(O)c(O)c1)[C@@H](O)C2 [Catechin, catechin, reference compound]
Reply: 49.02
